Ref: patent US6657060B2

Each entry below carries its reported pIC50.
tgt: recombinant mouse NPY5-receptor (mNPY5) (Mus musculus)
Construct: The full-length cDNA encoding the mouse NPY5 (mNPY5) receptor was amplified from mouse brain cDNA; membranes
Sequence (O70342 whole entry): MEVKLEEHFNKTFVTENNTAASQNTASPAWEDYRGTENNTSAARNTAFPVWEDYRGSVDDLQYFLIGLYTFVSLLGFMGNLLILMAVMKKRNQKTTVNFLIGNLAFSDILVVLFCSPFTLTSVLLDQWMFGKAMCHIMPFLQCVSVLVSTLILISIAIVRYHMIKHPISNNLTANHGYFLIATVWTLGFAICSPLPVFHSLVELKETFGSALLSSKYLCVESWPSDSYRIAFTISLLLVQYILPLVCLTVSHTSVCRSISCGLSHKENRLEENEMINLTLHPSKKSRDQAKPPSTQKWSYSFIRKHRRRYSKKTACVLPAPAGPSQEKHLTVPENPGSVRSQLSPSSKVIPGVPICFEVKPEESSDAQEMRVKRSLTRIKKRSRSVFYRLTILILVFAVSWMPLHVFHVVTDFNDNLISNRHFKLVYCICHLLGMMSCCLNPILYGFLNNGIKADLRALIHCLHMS
experiment: Radioligand competition binding
condition-description: membranes of HEK293 cells expressing mNPY5; 100 pM [125I]labelled peptide YY (PYY); 1 h at 22° C.
Text: The full-length cDNA encoding the mouse NPY5 (mNPY5) receptor was amplified from mouse brain cDNA using specific primers, designed based on the published sequence, and Pfu DNA-Polymerase (Stratagene). The amplification product was subcloned into the mammalian expression vector pcDNA3 using Eco RI and XhoI restriction sites. Positive clones were sequenced and one clone, encoding the published sequence was selected for generation of stable cell clones. […]
pIC50: −log10 of the molar value.

smiles-entry: Cc1cc(N2CCCC2)nc(/C=C/c2ccc(F)cc2F)n1
tgt: recombinant mouse NPY5-receptor (mNPY5) (Mus musculus)
pIC50: 7.52
//
smiles-entry: Cc1cc(N2CCCC2)nc(/C=C/c2cccc(C#N)c2)n1
tgt: recombinant mouse NPY5-receptor (mNPY5) (Mus musculus)
pIC50: 7.74
